target: N-acylethanolamine-hydrolyzing acid amidase (Homo sapiens, UniProt Q02083); experiment: Inhibition of activated human NAAA using fluorogenic PAMCA and N-4-methylcoumarin as substrate incubated for 90 mins by fluorescence based assay
Sequence (Q02083 29-125 limits assumed): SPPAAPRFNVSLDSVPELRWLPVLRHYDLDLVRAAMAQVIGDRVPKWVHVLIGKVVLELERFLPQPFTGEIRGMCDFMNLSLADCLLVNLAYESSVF
Sequence (Q02083 126-359 limits assumed): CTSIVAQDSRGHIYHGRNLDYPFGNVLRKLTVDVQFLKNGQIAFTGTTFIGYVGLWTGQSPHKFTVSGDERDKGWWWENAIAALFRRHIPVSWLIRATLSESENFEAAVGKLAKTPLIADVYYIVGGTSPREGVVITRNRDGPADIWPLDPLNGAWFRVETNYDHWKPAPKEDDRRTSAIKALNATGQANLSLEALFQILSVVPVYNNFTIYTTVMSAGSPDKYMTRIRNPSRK
Threshold check on IC50: strictly below 1 nM is yes; on or above 1 nM is no.

{"chemical_smiles": "COc1ccccc1-c1cc(Oc2ccccc2)ccc1COC1CN(C#N)C1", "target": "N-acylethanolamine-hydrolyzing acid amidase (Homo sapiens, UniProt Q02083)", "answer_label": "no"}
{"chemical_smiles": "N#CN1CC(OCc2ccc(Oc3ccccc3)cc2Br)C1", "target": "N-acylethanolamine-hydrolyzing acid amidase (Homo sapiens, UniProt Q02083)", "answer_label": "no"}
{"chemical_smiles": "COc1cccc(-c2ccc(COC3CN(C#N)C3)cc2)c1", "target": "N-acylethanolamine-hydrolyzing acid amidase (Homo sapiens, UniProt Q02083)", "answer_label": "yes"}
{"chemical_smiles": "N#CN1CC(OCc2ccc(-c3cccc(OCc4ccccc4)c3)cc2)C1", "target": "N-acylethanolamine-hydrolyzing acid amidase (Homo sapiens, UniProt Q02083)", "answer_label": "no"}
{"chemical_smiles": "COc1cccc(-c2ccc(COC3CN(C#N)C3)c(F)c2)c1", "target": "N-acylethanolamine-hydrolyzing acid amidase (Homo sapiens, UniProt Q02083)", "answer_label": "yes"}
{"chemical_smiles": "COc1ccc(-c2ccc3c(c2)CN(C2CN(C#N)C2)C3)cc1F", "target": "N-acylethanolamine-hydrolyzing acid amidase (Homo sapiens, UniProt Q02083)", "answer_label": "no"}

====

target: Cathepsin K (Homo sapiens); test: Inhibition of recombinant human Cathepsin K using Z-Phe-Arg-AMC as substrate preincubated with enzyme for 120 mins followed by substrate addition by fluorimetry analysis
Sequence (P43235 whole entry): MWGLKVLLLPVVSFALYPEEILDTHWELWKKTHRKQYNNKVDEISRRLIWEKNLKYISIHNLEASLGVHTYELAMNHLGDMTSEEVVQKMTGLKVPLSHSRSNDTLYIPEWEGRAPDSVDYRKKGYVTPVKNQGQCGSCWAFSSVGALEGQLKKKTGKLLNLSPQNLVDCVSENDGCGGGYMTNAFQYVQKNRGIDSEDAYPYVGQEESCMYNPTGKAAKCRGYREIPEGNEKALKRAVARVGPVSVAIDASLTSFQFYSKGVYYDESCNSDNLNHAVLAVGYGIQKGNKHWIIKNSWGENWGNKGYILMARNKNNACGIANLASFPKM

{"chemical_smiles": "N#CN1CC(CNS(=O)(=O)c2ccccc2)C1", "target": "Cathepsin K (Homo sapiens)", "uom": "nM", "IC50": 50}

====

Each entry below carries its recorded IC50.
target: N-acylethanolamine-hydrolyzing acid amidase (Homo sapiens, UniProt Q02083); test: Inhibition of activated human NAAA using fluorogenic PAMCA and N-4-methylcoumarin as substrate incubated for 90 mins by fluorescence based assay

{"compound": "COc1ncccc1-c1ccc(COC2CN(C#N)C2)cc1", "target": "N-acylethanolamine-hydrolyzing acid amidase (Homo sapiens, UniProt Q02083)", "IC50": "5.8 nM"}
{"compound": "COc1cccc(-c2ccc(S(=O)(=O)N3CCC34CN(C#N)C4)cc2)c1", "target": "N-acylethanolamine-hydrolyzing acid amidase (Homo sapiens, UniProt Q02083)", "IC50": "2.8 nM"}
{"compound": "COc1cccc(OC)c1-c1ccc(COC2CN(C#N)C2)cc1", "target": "N-acylethanolamine-hydrolyzing acid amidase (Homo sapiens, UniProt Q02083)", "IC50": "67.5 nM"}
{"compound": "N#CN1CC(OCc2ccc(-c3ccc4c(c3)OCCO4)cc2)(c2ccccc2)C1", "target": "N-acylethanolamine-hydrolyzing acid amidase (Homo sapiens, UniProt Q02083)", "IC50": "6.1 nM"}
{"compound": "N#Cc1ccccc1-c1cc(Oc2ccccc2)ccc1COC1CN(C#N)C1", "target": "N-acylethanolamine-hydrolyzing acid amidase (Homo sapiens, UniProt Q02083)", "IC50": "6.6 nM"}
{"compound": "Cn1nccc1-c1ccc(C(OC2CN(C#N)C2)c2ccccc2)cc1 (stereo not drawn)", "target": "N-acylethanolamine-hydrolyzing acid amidase (Homo sapiens, UniProt Q02083)", "IC50": "74.7 nM"}
{"compound": "N#CN1CC(OCc2ccc(-c3ccc(F)cc3)cc2)C1", "target": "N-acylethanolamine-hydrolyzing acid amidase (Homo sapiens, UniProt Q02083)", "IC50": "0.68 nM"}
{"compound": "N#CN1CC(OCc2ccc(Oc3ccccc3)cc2-c2ccccc2)C1", "target": "N-acylethanolamine-hydrolyzing acid amidase (Homo sapiens, UniProt Q02083)", "IC50": "8.5 nM"}
{"compound": "N#Cc1ccc(-c2cc(Oc3ccccc3)ccc2COC2CN(C#N)C2)cc1", "target": "N-acylethanolamine-hydrolyzing acid amidase (Homo sapiens, UniProt Q02083)", "IC50": "2.5 nM"}
{"compound": "COc1cccc(-c2ccc(COC3(c4ccccc4)CN(C#N)C3)cc2)c1", "target": "N-acylethanolamine-hydrolyzing acid amidase (Homo sapiens, UniProt Q02083)", "IC50": "9.1 nM"}
{"compound": "N#CN1CC[C@H](OCc2ccc(-c3ccccc3)cc2)C1", "target": "N-acylethanolamine-hydrolyzing acid amidase (Homo sapiens, UniProt Q02083)", "IC50": "315 nM"}
{"compound": "COc1cccc(-c2ccc(COC3(C)CN(C#N)C3)cc2)c1", "target": "N-acylethanolamine-hydrolyzing acid amidase (Homo sapiens, UniProt Q02083)", "IC50": "1.8 nM"}
{"compound": "COc1cccc(-c2ccc(C(=O)N3CCC34CN(C#N)C4)cc2)c1", "target": "N-acylethanolamine-hydrolyzing acid amidase (Homo sapiens, UniProt Q02083)", "IC50": "6.5 nM"}
{"compound": "Cc1ccc(-c2ccc(COC3CN(C#N)C3)cc2)cc1", "target": "N-acylethanolamine-hydrolyzing acid amidase (Homo sapiens, UniProt Q02083)", "IC50": "0.46 nM"}
{"compound": "CN(Cc1ccc(-c2ccccc2)cc1)C1CN(C#N)C1", "target": "N-acylethanolamine-hydrolyzing acid amidase (Homo sapiens, UniProt Q02083)", "IC50": "20.8 nM"}
{"compound": "COc1cccc(-c2ccc(COC3CN(C#N)C3)c(OC)c2)c1", "target": "N-acylethanolamine-hydrolyzing acid amidase (Homo sapiens, UniProt Q02083)", "IC50": "2.8 nM"}
{"compound": "N#CN1CC(OCc2ccc(-c3ccc4c(c3)OCO4)cc2)(c2ccccc2)C1", "target": "N-acylethanolamine-hydrolyzing acid amidase (Homo sapiens, UniProt Q02083)", "IC50": "9.2 nM"}
{"compound": "COc1ccc(-c2cc(Oc3ccccc3)ccc2COC2CN(C#N)C2)cc1", "target": "N-acylethanolamine-hydrolyzing acid amidase (Homo sapiens, UniProt Q02083)", "IC50": "5.7 nM"}
